- TESTED SYSTEM: human APJ receptor (Homo sapiens (Human))
- PROTOCOL: [35S]GTPγS binding assay (hAPJ SPA)
- TEST PARAMETERS: membranes from CHO cells stably expressing human APJ receptor, read-out: Activity hAPJ SPA EC50 IP
Exam item: assign Met to entries whose EC50 is below 0.03 µM and Not met to entries at or above 0.03 µM. Note that a value of exactly 0.03 µM receives Not met.

Before answering, review these 5 worked examples.
MOLECULE | CATEGORY LABEL
COc1cccc(OC)c1-n1c(C2CCCC2)nc(O)c(NS(=O)(=O)CCc2ncc(F)cn2)c1=O [Example 4.17] | Met
CCCCc1nc(O)c(NS(=O)(=O)C(C)C)c(=O)n1-c1c(OC)cccc1OC [Example 4.1] | Not met
CCCCc1nc(O)c(NS(=O)(=O)C[C@H](C)c2ncc(F)cn2)c(=O)n1-c1c(OC)cccc1OC (single isomer, unassigned) [Example 4.5] | Met
CCCCc1nc(O)c(NS(=O)(=O)[C@@H](C)[C@H](OC)c2ncc(C)cn2)c(=O)n1-c1c(OC)cccc1OC [Example 4.8] | Not met
CCCCc1nc(O)c(NS(=O)(=O)CCc2ccccc2)c(=O)n1-c1c(OC)cccc1OC [Example 4.4b] | Not met

As a next step, examine the molecule that follows.
Please let me know if CCCCc1nc(O)c(NS(=O)(=O)Cc2ccccc2)c(=O)n1-c1c(OC)cccc1OC [Example 4.3] shows EC50 below 0.03 µM.
Not met

====

- TESTED SYSTEM: human APJ receptor (Homo sapiens (Human), UniProt P35414)
- Sequence (P35414 whole entry): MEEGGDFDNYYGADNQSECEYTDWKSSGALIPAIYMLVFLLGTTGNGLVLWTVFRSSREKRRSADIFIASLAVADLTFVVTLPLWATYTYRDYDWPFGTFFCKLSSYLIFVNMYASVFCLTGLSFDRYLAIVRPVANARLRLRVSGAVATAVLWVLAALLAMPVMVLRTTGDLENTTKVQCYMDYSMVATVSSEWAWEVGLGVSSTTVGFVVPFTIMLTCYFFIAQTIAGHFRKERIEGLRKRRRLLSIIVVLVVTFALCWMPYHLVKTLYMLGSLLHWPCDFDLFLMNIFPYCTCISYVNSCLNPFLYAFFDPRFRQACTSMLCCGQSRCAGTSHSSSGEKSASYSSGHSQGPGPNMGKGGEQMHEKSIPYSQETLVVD
- PROTOCOL: [35S]GTPγS binding assay (hAPJ SPA)
- TEST PARAMETERS: membranes from CHO cells stably expressing human APJ receptor, read-out: Activity hAPJ SPA EC50 IP
For each of the compounds below, state its EC50.
One number for each entry, in nM.

Some entries whose results are on file:
COMPOUND | MEASUREMENT UNIT | EC50
CCCCc1nc(O)c(NS(=O)(=O)CCc2ncc(F)cn2)c(=O)n1-c1c(OC)cccc1OC | nM | 30
COc1cccc(OC)c1-n1c(-c2ccccc2)nc(O)c(NS(=O)(=O)CCc2ncc(F)cn2)c1=O | nM | 1.5
CCCCc1nc(O)c(NS(=O)(=O)C2CCCCC2)c(=O)n1-c1c(OC)cccc1OC | nM | 193
CCCCc1nc(O)c(NS(=O)(=O)C[C@@H](C)c2ncc(F)cn2)c(=O)n1-c1c(OC)cccc1OC (single isomer, unassigned) | nM | 20
CCCCc1nc(O)c(NS(=O)(=O)[C@@H](C)[C@H](C)c2ncc(F)cn2)c(=O)n1-c1c(OC)cccc1OC | nM | 27
CCCCc1nc(O)c(NS(=O)(=O)c2ccccc2)c(=O)n1-c1c(OC)cccc1OC | nM | 244

Give recorded EC50. CCCCc1nc(O)c(NS(=O)(=O)[C@H]2CCCN(c3ncc(F)cn3)C2)c(=O)n1-c1c(OC)cccc1OC (single isomer, unassigned)
78
